- Tested on: OVCAR-5 ovarian
- Experimental details: NCI tumour cell line growth inhibition, 48 h
The entries below come with measured TGI values attached.
Measured metric: TGI (µM)

>  <Compound>
O=C1/C(=C/c2cccc(Br)c2)CSC/C1=C\c1cccc(Br)c1

>  <System under test>
OVCAR-5 ovarian

>  <Measured metric>
TGI

>  <Result comparator>
=

>  <Measured number>
15.5

$$$$
>  <Compound>
CN(C)c1ccccc1CN1CCCN(Cc2ccccc2N(C)C)C1c1ccncc1

>  <System under test>
OVCAR-5 ovarian

>  <Measured metric>
TGI

>  <Result comparator>
=

>  <Measured number>
40.9

$$$$
>  <Compound>
N=c1c2c(-c3ccccc3)c[nH]c2ncn1N

>  <System under test>
OVCAR-5 ovarian

>  <Measured metric>
TGI

>  <Result comparator>
>

>  <Measured number>
100

$$$$
>  <Compound>
Cc1c(COc2cc(OCc3cccc(C#N)c3)c(CN3C[C@H](O)C[C@@H]3C(=O)O)cc2Cl)cccc1-c1ccc2c(c1)OCCO2

>  <System under test>
OVCAR-5 ovarian

>  <Measured metric>
TGI

>  <Result comparator>
=

>  <Measured number>
31

$$$$
>  <Compound>
COc1cc(/C=C/C(=O)c2ccc(NC(=O)CN3CCN(c4cc5c(cc4F)c(=O)c(C(=O)O)cn5C4CC4)CC3)cc2)cc(OC)c1OC

>  <System under test>
OVCAR-5 ovarian

>  <Measured metric>
TGI

>  <Result comparator>
>

>  <Measured number>
27.1

$$$$
>  <Compound>
COC(=O)CCC(=O)CC(=O)C(=O)Nc1c(Cl)cc([N+](=O)[O-])cc1Cl

>  <System under test>
OVCAR-5 ovarian

>  <Measured metric>
TGI

>  <Result comparator>
>

>  <Measured number>
100

$$$$
>  <Compound>
COc1cc(C2=C(C#Cc3ccccc3)COC2=O)cc(OC)c1OC

>  <System under test>
OVCAR-5 ovarian

>  <Measured metric>
TGI

>  <Result comparator>
>

>  <Measured number>
57.9

$$$$
>  <Compound>
Oc1[nH]c2ccc(Cl)cc2c1/C=c1/ccc2c(c1)N=C(c1ccc(F)cc1)N=2

>  <System under test>
OVCAR-5 ovarian

>  <Measured metric>
TGI

>  <Result comparator>
=

>  <Measured number>
14.7

$$$$
>  <Compound>
Cc1occc1C(=S)Nc1ccc(Cl)c(C(=O)OC(C)C2CC2)c1 (centres undefined)

>  <System under test>
OVCAR-5 ovarian

>  <Measured metric>
TGI

>  <Result comparator>
=

>  <Measured number>
61.2

$$$$

* * *

- System: HL-60(TB) leukemia
- Experimental details: NCI tumour cell line growth inhibition, 48 h; in the data active means GI50 below about 0.43 µM; inactive means the rest
Outcome codes: active, inactive

>  <Molecule>
Fc1ccc(Nc2nc3nonc3nc2Nc2ccc(F)cc2)cc1

>  <Class assignment>
active

$$$$
>  <Molecule>
COc1cc(/C=C/C(=O)c2c(C)nc3ccccc3c2C)ccc1OCCCOc1cc2c(cc1OC)C(=O)N1CCC[C@H]1C=N2

>  <Class assignment>
active

$$$$
>  <Molecule>
Cc1cccc2c(=O)c3c(sc12)c(NCCNCCO)nc1ccccc13

>  <Class assignment>
inactive

$$$$
>  <Molecule>
O=C(Nc1ccc2ncnc(Nc3ccc(Oc4cccc(F)c4)c(Cl)c3)c2c1)c1ccc(CNCCO)cc1

>  <Class assignment>
inactive

$$$$
>  <Molecule>
CN1CCN(c2ccc3nc(-c4ccc5nc(-c6ccc(OCCC(C)(C)C)cc6)[nH]c5c4)[nH]c3c2)CC1

>  <Class assignment>
inactive

$$$$
>  <Molecule>
O=[N+]([O-])c1c(Br)sc(Br)c1[N+](=O)[O-]

>  <Class assignment>
inactive

$$$$
>  <Molecule>
CC[C@@H](C(=O)[C@@H](C)[C@@H](O)[C@H](C)[C@@H]1O[C@@H]([C@@H](CC)C(=O)N(CC)CC)CC[C@@H]1C)C1O[C@]2(C=CC(=O)[C@]3(CC[C@@](C)([C@H]4CC[C@](O)(CC)[C@H](C)O4)O3)O2)[C@H](C)C[C@@H]1C (stereo partly specified)

>  <Class assignment>
inactive

$$$$
>  <Molecule>
CCN(C(=O)c1cc(F)ccc1Oc1cncnc1N1CC2(CCN(CC3CCC(NS(=O)(=O)CC)CC3)CC2)C1)C(C)C (stereo unspecified)

>  <Class assignment>
inactive

$$$$
>  <Molecule>
COc1ccc(Nc2c3ccccc3nc3ccccc23)cc1

>  <Class assignment>
inactive

$$$$
>  <Molecule>
CC(=O)O[C@]1(C(C)=O)CC[C@H]2[C@@H]3C=C(C)C4=CC(=O)CC[C@]4(C)[C@H]3CC[C@@]21C

>  <Class assignment>
inactive

$$$$
>  <Molecule>
COc1ccc(-c2nc3ccccn3c2/C=C/C(=O)c2cc(OC)c(OC)c(OC)c2)cc1

>  <Class assignment>
inactive

$$$$

* * *

Listing of recorded TGI by entry.
- Test system: M14 melanoma
- Experimental details: NCI tumour cell line growth inhibition, 48 h

>  <Compound>
Cc1cc(C)nc(SC(C)C(=O)N/N=C/c2ccc(OCc3ccccc3)cc2)n1 (stereo not given)

>  <System under test>
M14 melanoma

>  <Result comparator>
>

>  <TGI / µM>
100

$$$$
>  <Compound>
COc1ccc(Nc2c3ccccc3nc3ccccc23)cc1

>  <System under test>
M14 melanoma

>  <Result comparator>
=

>  <TGI / µM>
13.6

$$$$
>  <Compound>
COc1cc2c3c(c1OC)-c1c(ccc4c1OCO4)CC3(C#N)N(C(=O)c1ccccc1)CC2 (stereo not given)

>  <System under test>
M14 melanoma

>  <Result comparator>
>

>  <TGI / µM>
100

$$$$
>  <Compound>
Fc1ccc2nc3n(c2c1)C(c1c(Cl)cccc1Cl)SC3 (stereo not given)

>  <System under test>
M14 melanoma

>  <Result comparator>
>

>  <TGI / µM>
100

$$$$
>  <Compound>
CCNC(=O)c1cc2c(-c3cc(C(C)(C)O)ccc3Oc3c(C)cc(F)cc3C)cn(C)c(=O)c2[nH]1

>  <System under test>
M14 melanoma

>  <Result comparator>
=

>  <TGI / µM>
14.2

$$$$

* * *

- System: SF-268 CNS
- Experimental details: NCI tumour cell line growth inhibition, 48 h
Measured metric: GI50

>  <Compound>
O=C(/C=C/c1cc([N+](=O)[O-])ccc1Cl)c1ccccc1

>  <Result>
16900 nM

$$$$
>  <Compound>
Cc1cc(N(CCNc2ccnc3cc(Cl)ccc23)Cc2ccco2)nc(Cl)n1

>  <Result>
2160 nM

$$$$
>  <Compound>
COc1cc2c3c(n(CCCI)c(=O)c2cc1OC)-c1cc2c(cc1C3=O)OCO2

>  <Result>
1340 nM

$$$$
>  <Compound>
COc1cc2c(cc1Nc1nc(Nc3ccsc3C(N)=O)c3cc[nH]c3n1)N(C(=O)CN(C)C)CCC2(C)C

>  <Result>
2600 nM

$$$$
>  <Compound>
COc1cc(Nc2ccnc(NCCCNc3ccnc4cc(Cl)ccc34)n2)cc(OC)c1

>  <Result>
1800 nM

$$$$
>  <Compound>
O=[N+]([O-])c1c(Br)sc(Br)c1[N+](=O)[O-]

>  <Result>
12500 nM

$$$$
>  <Compound>
Nc1nc(Cl)c(N=Nc2ccc(Cl)cc2)c(NCC2(CO)CC2)n1

>  <Result>
40900 nM

$$$$
>  <Compound>
COc1ccc(Cn2cc3c(c2-c2ccc(OC)cc2)CCc2cnoc2-3)cc1

>  <Result>
686 nM

$$$$
>  <Compound>
N#CSCC1CC(O)(c2ccccc2)CC(c2ccc(F)cc2)O1 (stereo unspecified)

>  <Result>
1650 nM

$$$$
>  <Compound>
Fc1ccc(Nc2nc3nonc3nc2Nc2ccc(F)cc2)cc1

>  <Result>
505 nM

$$$$
>  <Compound>
CCC1CCc2nc3sc(C(=O)Nc4cccc(F)c4)c(N)c3cc2C1 (stereo unspecified)

>  <Result>
> 100000 nM

$$$$

* * *

- Test system: U251 CNS
- Experimental details: NCI tumour cell line growth inhibition, 48 h
Measured metric: TGI

>  <Molecule>
CN(C)CCNC(=O)c1cccc2c1nc(-c1ccccc1)c1ccccc12

>  <Result>
18.4 µM

$$$$
>  <Molecule>
CC(=C(C(N)=O)C(N)=O)C1C=C(c2cccs2)CC(c2ccc(Cl)cc2)=C1O (stereo unspecified)

>  <Result>
> 100 µM

$$$$
>  <Molecule>
Cc1ccc(-n2[nH]nc(C#N)c2=O)cc1

>  <Result>
> 100 µM

$$$$
>  <Molecule>
CC1(CCCO)CCCCCCCCCC(C)(CCCO)C1=O (stereo unspecified)

>  <Result>
> 100 µM

$$$$
>  <Molecule>
CC(=O)OC(CCC1(C)OC1COc1ccc(CCNC(=O)c2ccccc2)cc1)C(C)(C)OC(C)=O (stereo unspecified)

>  <Result>
> 100 µM

$$$$
>  <Molecule>
CCCCCCCCCCCCCP(=O)(O)OCC

>  <Result>
> 100 µM

$$$$
>  <Molecule>
COC(=O)C1=C(C)NC(C)=C(C(=O)OC)C1/C=C(Cl)/C=C/c1ccccc1

>  <Result>
58.5 µM

$$$$
>  <Molecule>
O=c1oc2cc(O)ccc2c(O)c1C(c1cccnc1)c1c(O)c2ccc(O)cc2oc1=O

>  <Result>
> 100 µM

$$$$
>  <Molecule>
CC(C)(C)c1cc(C2=NN(c3ccccc3)C(c3ccccc3)C2)cc(C(C)(C)C)c1O (stereo unspecified)

>  <Result>
> 100 µM

$$$$
>  <Molecule>
CC(C)(C)c1cc2c3c(c1)C(C(F)(F)F)(C(F)(F)F)O[Te]3(C)OC2(C(F)(F)F)C(F)(F)F

>  <Result>
> 100 µM

$$$$
>  <Molecule>
CCOC(=O)C(Cl)(NC(=O)c1c(F)c(F)c(F)c(F)c1F)C(F)(F)F (stereo unspecified)

>  <Result>
> 100 µM

$$$$
>  <Molecule>
CC(C)CCN=C(N)c1ccc(N2CCN(c3ccc(C(N)=NCCC(C)C)cc3)CC2)cc1

>  <Result>
32.9 µM

$$$$
>  <Molecule>
Cc1cc(Cl)ccc1NC(=O)c1cc2ccccc2cc1O

>  <Result>
> 27.5 µM

$$$$
>  <Molecule>
CO/N=C(\C)COc1ccc2c(=O)c(-c3ccccc3)coc2c1

>  <Result>
> 100 µM

$$$$
>  <Molecule>
Cn1c2ccccc2c2c(=O)[nH]c(=O)[nH]c21

>  <Result>
> 100 µM

$$$$
>  <Molecule>
Cc1ccc(OC2CC(n3cnc4ncnc(Cl)c43)OC2Oc2ccc(C)cc2)cc1 (stereo unspecified)

>  <Result>
> 100 µM

$$$$
>  <Molecule>
Cc1cccnc1/N=C/c1c(O)n(C)c(=O)[nH]c1=O

>  <Result>
> 100 µM

$$$$
>  <Molecule>
O=C1/C(=C/c2ccccc2O)N=C(c2ccccc2)N1c1nc2ccccc2s1

>  <Result>
28.7 µM

$$$$
>  <Molecule>
COC(=O)C1CCC(=O)N1C(c1ccc(OC)cc1)c1ccc(OC)cc1 (stereo unspecified)

>  <Result>
> 100 µM

$$$$
>  <Molecule>
CC(C)[Si](OC1=CCC[C@H]2NC(=O)[C@@H](Cc3ccccc3)[C@@]12C)(C(C)C)C(C)C

>  <Result>
11.6 µM

$$$$
>  <Molecule>
CCOC(=O)c1c(N2CCCC2)[nH]c(=O)c(C(c2ccco2)c2c(O)c(C(=O)OCC)c(N3CCCC3)[nH]c2=O)c1O

>  <Result>
> 100 µM

$$$$
